assay: In vivo pharmacokinetics, cyno; settings: cynomolgus monkey, in vivo, 1 mg/kg; Cyno; 1 mpk IV dose; read-out: Vss
Quantity kind: Vd (L/kg)
Please state the figure in L/kg; there is no need to write the unit.

[ask] Fill in reported Vd for this entry: `CNc1cc(Nc2cccn(-c3ccccn3)c2=O)nc2c(C(=O)N[C@@H]3CC[C@H]3OC)cnn12`
[reply] 1.9

* * *

molecular target: PDE4D (Homo sapiens)
Sequence (Q08499 whole entry, species assumed): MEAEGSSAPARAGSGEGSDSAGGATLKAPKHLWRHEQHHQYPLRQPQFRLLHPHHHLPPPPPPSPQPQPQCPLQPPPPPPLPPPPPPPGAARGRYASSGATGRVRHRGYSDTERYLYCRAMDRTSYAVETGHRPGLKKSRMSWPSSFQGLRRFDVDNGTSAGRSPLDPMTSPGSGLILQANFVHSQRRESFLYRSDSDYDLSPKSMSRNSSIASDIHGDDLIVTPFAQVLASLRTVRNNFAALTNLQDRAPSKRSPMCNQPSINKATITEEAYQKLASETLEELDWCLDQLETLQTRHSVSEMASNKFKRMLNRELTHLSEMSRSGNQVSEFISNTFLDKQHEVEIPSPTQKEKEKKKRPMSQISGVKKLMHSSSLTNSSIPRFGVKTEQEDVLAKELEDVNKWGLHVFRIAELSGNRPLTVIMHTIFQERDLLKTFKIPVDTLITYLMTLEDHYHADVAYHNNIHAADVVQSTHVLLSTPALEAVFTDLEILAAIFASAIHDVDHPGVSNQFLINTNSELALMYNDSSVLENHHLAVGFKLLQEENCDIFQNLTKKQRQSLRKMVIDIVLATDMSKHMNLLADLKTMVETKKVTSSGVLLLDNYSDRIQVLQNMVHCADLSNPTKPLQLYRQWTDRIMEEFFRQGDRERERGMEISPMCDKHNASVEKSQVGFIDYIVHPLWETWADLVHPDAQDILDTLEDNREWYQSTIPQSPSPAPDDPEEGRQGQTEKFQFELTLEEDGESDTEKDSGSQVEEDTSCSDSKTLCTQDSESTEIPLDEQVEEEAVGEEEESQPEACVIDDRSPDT
pIC50: −log10 of the molar value.
Quantity kind: pIC50

[ask] Fill in reported pIC50 for this entry: `CNc1cc(Nc2cccn(-c3ccccn3)c2=O)nc2c(C(=O)N[C@@H]3CC[C@H]3OC)cnn12`
[reply] < 5.00

The reported measurements were obtained from patent US20250213572A1.
